Tested on: OVCAR-4 ovarian
Test: NCI tumour cell line growth inhibition, 48 h
Observation Type: TGI (µM)
Give bare numbers, in µM.

Consider the following illustrative entries.
CC(=O)[C@]1(O)Cc2c(O)c3c(c(O)c2C(OC2OC(C)C(O)C(O)C2F)C1)C(=O)c1ccccc1C3=O (stereo not given in full)	11.2
Cc1cc(C)cc(Nc2nnc3n2S(=O)(=O)c2cc(C#N)c(Cl)cc2S3)c1	22.1

Kindly review the next compound as well.
Per the record, CCOC(=O)c1c(C)n(Cc2ccc(OC)cc2)c2c1cc(O)c1[nH]c3c(c12)CCCC3 has TGI of 88.6

----------
Task for the reader: assign each of the following compounds its reported TGI.
Test system: NCI/ADR-RES ovarian
Experiment: NCI tumour cell line growth inhibition, 48 h

CNC1C(=O)C(C)C(O)(C(CC(C)C(O)/C=C/C=C/CNC(=O)C(C)(C)C(O)\C(C)=C/C=C\C=C\Cc2cnc(C)o2)OC)C12C(=O)OC2COC (stereo not drawn) (tested in a mixture with another compound)	> 100 µM
NC(N)=N/N=C/c1c(Cl)nc2sccn12	> 100 µM
C=C(C)[C@@H](C(=O)OC)N1C(=O)c2ccccc2C1=O	> 100 µM
CC(C(=O)N1c2ccccc2Sc2ccccc21)N1c2ccccc2Sc2ccccc21 (stereo not drawn)	> 100 µM

Batch request: TGI for each of the following compounds.
1. COc1cc([C@@H]2c3cc4c(cc3C(O[C@@H]3O[C@@H]5CO[C@@H](c6cccs6)OC5[C@H](O)[C@H]3O)C3COC(=O)[C@@H]32)OCO4)cc(OC)c1O (stereo partly drawn)
2. CC(=O)NCc1nc(C#N)c(N)o1
3. CC(C)NC(=O)OCc1c(COC(=O)NC(C)C)c(-c2ccc[n+](COC(=O)CC(C)(C)C)c2)n2c1CCC2
4. COc1cc2c(/C=C3/C(=O)Nc4cccc(Cl)c43)c(Cl)n(Cc3ccccc3)c2cc1C

["50 µM", "> 100 µM", "> 100 µM", "12 µM"]

Hey, can you go through the list below and give me TGI for every item?
1. O=C1NNC(=O)C2C3c4ccccc4C(c4ccccc43)C12 (stereo not drawn)
2. CSc1nc(Cl)c2c(n1)Sc1nc3cc4c(cc3n1C2O)OCO4 (stereo not drawn)
3. CSc1ccc(C2C(Cl)C(=O)N2NC(=O)c2c(Cl)c(Cl)c(Cl)c(Cl)c2-c2nc3ccccc3[nH]2)cc1 (stereo not drawn)
4. O=C(c1ccccc1)c1c2ccccn2c2cccc[n+]12
5. C=C1C(=O)O[C@H]2[C@H]1CC/C(COC(=O)/C=C\C(=O)NCc1ccc(Cn3c(=O)sn(-c4ccc(C#N)cc4)c3=O)cc1)=C\CC[C@@]1(C)O[C@@H]21
6. CCCCCCCCCCC(O)C1CCC(C2CCC(C(O)CCCCC(O)CCCCCC(O)CC3=CC(C)OC3=O)O2)O1 (stereo not drawn)
7. COc1ccc(S(=O)(=O)N(Cc2ccc3c(n2)C=CC(C)(C)O3)C2CCC2)cc1OC
8. Cc1cccc2c(N)c3cccc(C(=O)NCCCNCCN)c3nc12

> 100 µM
5.72 µM
> 100 µM
> 100 µM
5.97 µM
> 25 µM
> 100 µM
77.9 µM

For the 2 compounds below, give their TGI values.
1. Cc1nnc([C@@]2(C)CC[C@H]3[C@@H](CC=C4C[C@@H](O)CC[C@@]43C)[C@@H]2CC#N)o1
2. O=C(NCCCNC(=O)c1ccc2cc(O)c(O)cc2c1)c1ccc2cc(O)c(O)cc2c1

1: > 100 µM; 2: > 100 µM
